Assay: inhibition of 3D7 malaria parasite growth – strain 3D7 (AID 2306);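 note: 0% = DMSO wells and 100% = chloroquine plus artemisinin control wells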
Details: P. falciparum 3D7 erythrocytic growth, LDH absorbance, 72 h; at 2 µM; active compounds read high
The source made the active and inactive calls. The rule behind the calls is not given here.
endpointName: growth inhibition

Some solved entries appear below for comparison.
1) Cc1c[nH]c2cc(/C=C/C(=O)NC3CCC(CCN4CCc5ccc(C#N)cc5CC4)CC3)ccc12 (centres undefined) ... 95% (active)
2) O=C(Nc1ccc(Cl)cc1)NC1CCN(CCCCCNC(=O)[C@@H]2C[C@H]2c2ccc(Cl)c(Cl)c2)CC1 ... 102% (active)
3) Fc1ccc2nc(-c3cccc(-c4cccc(CNCC5CCCO5)c4)c3)[nH]c2c1 (centres undefined) ... 99% (active)

Note: attention shifts to another entry.
Incoming: Could you share which growth inhibition value was measured for CCCCCCCN1CC[C@H](NC(=O)Nc2ccnc3ccc(OC)cc23)[C@H](CO)C1 ?
Outgoing: 94% (active)
